Each entry below lists one item and its recorded MIC value.
- Test system: Klebsiella pneumoniae
- PROTOCOL NOTES: Antibacterial activity against Klebsiella pneumoniae assessed as reduction in bacterial growth measured after 24 hrs by two-fold serial dilution method
- Type: functional
READOUT KIND: MIC (µg/mL)

1) Cc1ccc2cccc(NC(=O)c3ccc4c(c3)OCCCO4)c2n1    50
2) O=C(Nc1ccccn1)c1ccc2c(c1)OCCCO2    50
3) COc1cc(NC(=O)c2ccc3c(c2)OCCCO3)c2ncccc2c1    50
4) O=C(Nc1nccc2ccccc12)c1ccc2c(c1)OCCCO2    25
5) O=C(Nc1cc(Cl)cc2cccnc12)c1ccc2c(c1)OCCCO2    3.13

Values compiled from ChEMBL document CHEMBL5528027.
